biological target: Integrin alpha-IIb/beta-3 (Homo sapiens); experiment: Displacement of FITC-labeled fibrinogen from alphaIIbbeta3 in human platelets
pIC50: −log10 of the molar value.
Quick rule: pIC50 of at least 8 means criterion met, below that means criterion not met.

>  <Molecule>
O=C(O)CCN1Cc2ccc(NC(=O)CCCC3CCNCC3)cc2C1=O

>  <Qualitative label>
criterion met

$$$$
>  <Molecule>
O=C(O)CN1Cc2ccc(NC(=O)c3ccc4c(c3)CNCC4)cc2C1=O

>  <Qualitative label>
criterion not met

$$$$
>  <Molecule>
O=C(O)CCNC(=O)CCNC(=O)c1ccc2c(c1)CNCC2

>  <Qualitative label>
criterion not met

$$$$
>  <Molecule>
CC(CC(=O)O)N1Cc2ccc(NC(=O)c3ccc(N4CCNCC4)cc3)cc2C1=O (racemic)

>  <Qualitative label>
criterion not met

$$$$
>  <Molecule>
CC(CC(=O)O)N1Cc2ccc(NC(=O)CCCC3CCNCC3)cc2C1=O (racemic)

>  <Qualitative label>
criterion not met

$$$$
>  <Molecule>
O=C(O)CN1Cc2ccc(NC(=O)c3ccc(C4CCNCC4)cc3)cc2C1=O

>  <Qualitative label>
criterion not met

$$$$

###

test system: Platelet; assay: Inhibition of ADP-induced platelet aggregation in human platelet rich plasma by Borns method; type: functional
pIC50: −log10 of the molar value.
Quick rule: pIC50 of at least 5 means met, below that means not met.

>  <Molecule>
Cc1ccc(S(=O)(=O)N[C@@H](CNC(=O)Cc2cn(CCCC3CCNCC3)c3ccccc23)C(=O)O)cc1

>  <Qualitative label>
met

$$$$
>  <Molecule>
CC(CC(=O)O)N1Cc2ccc(NC(=O)c3ccc(N4CCNCC4)cc3)cc2C1=O (racemic)

>  <Qualitative label>
met

$$$$
>  <Molecule>
CC(CC(=O)O)N1Cc2ccc(NC(=O)c3ccc4c(c3)CNCC4)cc2C1=O (racemic)

>  <Qualitative label>
met

$$$$
>  <Molecule>
O=C(O)CCCN1Cc2ccc(NC(=O)CCCC3CCNCC3)cc2C1=O

>  <Qualitative label>
not met

$$$$
>  <Molecule>
O=C(O)CCN1Cc2ccc(NC(=O)CCCC3CCNCC3)cc2C1=O

>  <Qualitative label>
met

$$$$
>  <Molecule>
O=C(O)CCN1Cc2ccc(NC(=O)c3ccc(N4CCNCC4)cc3)cc2C1=O

>  <Qualitative label>
met

$$$$
>  <Molecule>
O=C(O)CN1Cc2ccc(NC(=O)c3ccc4c(c3)CNCC4)cc2C1=O

>  <Qualitative label>
not met

$$$$
>  <Molecule>
O=C(O)CN1Cc2ccc(NC(=O)CCCC3CCNCC3)cc2C1=O

>  <Qualitative label>
not met

$$$$
>  <Molecule>
O=C(O)CCN1Cc2ccc(NC(=O)c3ccc4c(c3)CNCC4)cc2C1=O

>  <Qualitative label>
met

$$$$
>  <Molecule>
N=C(N)c1ccc(C(=O)Nc2ccc3c(c2)CCN(CC(=O)O)C3)cc1

>  <Qualitative label>
met

$$$$
>  <Molecule>
O=C(O)CN1Cc2ccc(NC(=O)c3ccc(C4CCNCC4)cc3)cc2C1=O

>  <Qualitative label>
not met

$$$$
>  <Molecule>
CC(CC(=O)O)N1Cc2ccc(NC(=O)c3ccc(C4CCNCC4)cc3)cc2C1=O (racemic)

>  <Qualitative label>
met

$$$$
>  <Molecule>
O=C(O)CCNC(=O)CCNC(=O)c1ccc2c(c1)CNCC2

>  <Qualitative label>
met

$$$$
>  <Molecule>
O=C(O)CCNC(=O)c1ccc2c(c1)C(=O)N(CCC1CCNCC1)C2

>  <Qualitative label>
met

$$$$
>  <Molecule>
O=C(O)CCCN1Cc2ccc(NC(=O)c3ccc4c(c3)CNCC4)cc2C1=O

>  <Qualitative label>
not met

$$$$
>  <Molecule>
CC(CC(=O)O)N1Cc2ccc(NC(=O)CCCC3CCNCC3)cc2C1=O (racemic)

>  <Qualitative label>
met

$$$$
>  <Molecule>
O=C(O)CCCN1Cc2ccc(NC(=O)c3ccc(C4CCNCC4)cc3)cc2C1=O

>  <Qualitative label>
not met

$$$$
